Item-by-item account of pIC50
- TEST SYSTEM: methionyl-tRNA synthetase (Trypanosoma brucei brucei)
- ASSAY REMARKS: inhibition of trypanosome methionyl-tRNA synthetase – biochemical, luminescence, dose response, late-stage follow-up (AID 686967)
- CONDITION SUMMARY: recombinant T. brucei MetRS, luminescence (ATP depletion)
Note on units: pIC50 is unitless, being -log10 of a concentration expressed in mol/L.

Worked cases, pIC50 given:
[
  {
    "COMPOUND": "O=C(Cn1cc(C(=O)C(=O)N2CCOCC2)c2ccccc21)Nc1cccc(C(F)(F)F)c1",
    "pIC50": 6.76
  },
  {
    "COMPOUND": "COc1ccc(OCC(O)CNC(=O)Nc2ccc(Cl)cc2)cc1 (stereo not given)",
    "pIC50": 5.26
  },
  {
    "COMPOUND": "CC(C)(C)[C@H]1C=C(C(=O)NCc2nc3ccccc3[nH]2)O[C@@H](OCc2ccc(CO)cc2)C1",
    "pIC50": 5.55
  }
]

INPUT: Specify reported pIC50 for the compound shown: O=C(NCc1nc2ccccc2[nH]1)C1=C[C@H](C2CC2)C[C@H](OCc2ccc(CO)cc2)O1
OUTPUT: 5.19

INPUT: Specify reported pIC50 for the compound shown: CC(=O)c1c[nH]c(C(=O)NCc2cccc(C(F)(F)F)c2)c1
OUTPUT: 5.98

---

- TEST SYSTEM: methionyl-tRNA synthetase (Trypanosoma brucei brucei)
- ASSAY REMARKS: inhibition of trypanosome methionyl-tRNA synthetase – biochemical, luminescence, dose response, late-stage follow-up (AID 686967)
- CONDITION SUMMARY: recombinant T. brucei MetRS, luminescence (ATP depletion)
PROPERTY NAME: IC50

Worked cases, IC50 given:
[
  {
    "MOLECULE": "CC(C)(C)[C@@H]1C=C(C(=O)NCc2nc3ccccc3[nH]2)O[C@H](OCc2ccc(CO)cc2)C1",
    "OBSERVED": "3390 nM"
  },
  {
    "MOLECULE": "CC(CC(=O)Nc1cccc(Br)c1)=NNC(=O)c1ccc(O)cc1O",
    "OBSERVED": "949 nM"
  },
  {
    "MOLECULE": "O=C(NCc1nc2ccccc2[nH]1)C1=C[C@H](c2csc3ccccc23)C[C@H](OCCCCO)O1",
    "OBSERVED": "739 nM"
  },
  {
    "MOLECULE": "CC(C)OCCCN1CC(=O)N2C(c3cccc([N+](=O)[O-])c3)c3[nH]c4ccccc4c3C[C@H]2C1=O (some centres undefined)",
    "OBSERVED": "641 nM"
  },
  {
    "MOLECULE": "COc1ccc(CNC(=O)CSc2nnc3c(n2)[nH]c2ccc(F)cc23)cc1",
    "OBSERVED": "755 nM"
  },
  {
    "MOLECULE": "Oc1c(Cl)cc(Cl)cc1CNc1nc2ccccc2[nH]1",
    "OBSERVED": "429 nM"
  }
]

INPUT: Specify reported IC50 for the molecule shown: CCCCCCCCCC1NC(C(=O)O)Cc2c1[nH]c1ccccc21 (centres undefined)
OUTPUT: 4110 nM

INPUT: Specify reported IC50 for the molecule shown: CN1CC(=O)N2C(c3cccc([N+](=O)[O-])c3)c3[nH]c4ccccc4c3C[C@H]2C1=O (some centres undefined)
OUTPUT: 338 nM

INPUT: Specify reported IC50 for the molecule shown: O=C(CC=NOCc1ccc([N+](=O)[O-])cc1)Nc1ccc(Br)cc1
OUTPUT: 1430 nM

---

- TEST SYSTEM: methionyl-tRNA synthetase (Trypanosoma brucei brucei)
- ASSAY REMARKS: inhibition of trypanosome methionyl-tRNA synthetase – biochemical, luminescence, dose response, late-stage follow-up (AID 686967); call rule not given here
- CONDITION SUMMARY: recombinant T. brucei MetRS, luminescence (ATP depletion)
Answer with one of the outcomes class 1 = active, class 0 = inactive

[
  {
    "COMPOUND": "Clc1ccc(-c2nnc(SCc3nc4ccccc4[nH]3)o2)c(Cl)c1",
    "DISCRETE LABEL": "class 1"
  }
]

INPUT: Which outcome was entered for the compound O=C(NCc1nc2ccccc2[nH]1)C1=C[C@H](c2ccc3c(c2)OCO3)C[C@H](OCCCCO)O1 in this test?
OUTPUT: class 1

INPUT: Which outcome was entered for the compound O=C(C[C@H]1C(=O)N(Cc2ccccc2)C[C@@H]1c1ccc(Br)cc1)Nc1ccc(Br)cc1 in this test?
OUTPUT: class 1

INPUT: Which outcome was entered for the compound O=C(Cn1cnc2ccccc21)Nc1cccc([N+](=O)[O-])c1 in this test?
OUTPUT: class 1

INPUT: Which outcome was entered for the compound O=C(NCc1nc2ccccc2[nH]1)C1=C[C@@H](c2ccc3c(c2)OCO3)C[C@@H](OCCCCO)O1 in this test?
OUTPUT: class 1

INPUT: Which outcome was entered for the compound O=C(CCC(=O)Nc1cccc([N+](=O)[O-])c1)NN=Cc1cccs1 in this test?
OUTPUT: class 1

INPUT: Which outcome was entered for the compound Cc1[nH]c2ccc(Br)cc2c(=O)c1CN1CCCCCC1 in this test?
OUTPUT: class 1

INPUT: Which outcome was entered for the compound CCOC(=O)N1CCC(Nc2c(Nc3ccc(F)cc3)c(=O)c2=O)CC1 in this test?
OUTPUT: class 1

INPUT: Which outcome was entered for the compound O=C(NCc1nc2ccccc2[nH]1)C1=C[C@@H](c2ccc(Br)cc2)C[C@@H](OCCCCO)O1 in this test?
OUTPUT: class 1

INPUT: Which outcome was entered for the compound O=C(NCc1nc2ccccc2[nH]1)C1=C[C@@H](C2CC2)C[C@@H](OCc2ccc(CO)cc2)O1 in this test?
OUTPUT: class 1

INPUT: Which outcome was entered for the compound Brc1cnc2nc(SCc3nc4ccccc4[nH]3)[nH]c2c1 in this test?
OUTPUT: class 1

---

- TEST SYSTEM: methionyl-tRNA synthetase (Trypanosoma brucei brucei)
- ASSAY REMARKS: inhibition of trypanosome methionyl-tRNA synthetase – biochemical, luminescence, dose response, late-stage follow-up (AID 686967)
- CONDITION SUMMARY: recombinant T. brucei MetRS, luminescence (ATP depletion)
Active and inactive are the calls of the source. How the calls were made is not given here.
Answer with one of the outcomes 1 (active), 0 (inactive)

Known results for molecules:
[
  {
    "MOLECULE": "COc1ccccc1-n1c(SCC(=O)Nc2ccc(Cl)cc2)nc(O)c(Cc2ccccc2)c1=O",
    "DISCRETE LABEL": 1
  },
  {
    "MOLECULE": "Cc1ccc(NC(=O)CN(C)C(=O)CCSc2ccc(F)cc2)cc1",
    "DISCRETE LABEL": 1
  },
  {
    "MOLECULE": "O=C1CC(N(CCc2ccccc2)C(=S)Nc2ccccc2)C(=O)N1c1ccc(Br)cc1 (centres undefined)",
    "DISCRETE LABEL": 1
  }
]

INPUT: Which outcome was entered for the molecule O=C1[C@@H]2Cc3c([nH]c4ccccc34)C(c3cccc([N+](=O)[O-])c3)N2C(=O)CN1CCCO (some centres undefined) in this test?
OUTPUT: 1

INPUT: Which outcome was entered for the molecule O=C(Nc1ccc(F)c(Cl)c1)C1CC(=O)n2c(nc3ccccc32)N1 (centres undefined) in this test?
OUTPUT: 1

INPUT: Which outcome was entered for the molecule COc1ccc2[nH]c3nc(SCC(=O)Nc4ccc5c(c4)OCO5)nnc3c2c1 in this test?
OUTPUT: 1

INPUT: Which outcome was entered for the molecule O=C(NCc1nc2ccccc2[nH]1)C1=C[C@@H](c2csc3ccccc23)C[C@@H](OCCCCO)O1 in this test?
OUTPUT: 1

INPUT: Which outcome was entered for the molecule CC(=O)c1ccc(N2CCN(C(=O)CCCn3c(=O)[nH]c4ccc(Br)cc4c3=O)CC2)cc1 in this test?
OUTPUT: 1

INPUT: Which outcome was entered for the molecule O=C(CC(=O)Nc1cccc(Cl)c1)NN=Cc1ccccc1 in this test?
OUTPUT: 1

INPUT: Which outcome was entered for the molecule O=C(CC=NOCc1ccc([N+](=O)[O-])cc1)Nc1ccc(Cl)cc1 in this test?
OUTPUT: 1

INPUT: Which outcome was entered for the molecule C[C@H](O)[C@@H]1C(=O)N2CCc3c([nH]c4ccccc34)[C@@H]2C[C@@H]1N(C)Cc1ccc2c(c1)OCO2 in this test?
OUTPUT: 1

INPUT: Which outcome was entered for the molecule COc1ccccc1NS(=O)(=O)c1cccc(NC(=O)Nc2ccccc2)c1 in this test?
OUTPUT: 1

INPUT: Which outcome was entered for the molecule CN(Cc1cc(Cl)cc(Cl)c1)[C@H]1C[C@H]2c3[nH]c4ccccc4c3CCN2C(=O)[C@H]1CO in this test?
OUTPUT: 1

INPUT: Which outcome was entered for the molecule O=C(NCCc1nc2ccccc2[nH]1)c1ccc(Cl)c([N+](=O)[O-])c1 in this test?
OUTPUT: 1

INPUT: Which outcome was entered for the molecule CCO[C@@H]1OC(C(=O)NCc2nc3ccccc3[nH]2)=C[C@H](c2ccc(Br)cc2)[C@H]1CCCO in this test?
OUTPUT: 0

INPUT: Which outcome was entered for the molecule O=C(NCc1nc2ccccc2[nH]1)C1=C[C@@H](c2ccccc2)C[C@@H](OCc2ccc(CO)cc2)O1 in this test?
OUTPUT: 1

INPUT: Which outcome was entered for the molecule CN(CC(=O)Nc1ccc(Cl)cc1)C(=O)c1ccc(-n2cncn2)c([N+](=O)[O-])c1 in this test?
OUTPUT: 1

INPUT: Which outcome was entered for the molecule O=C1CC(SCc2nc3ccccc3[nH]2)C(=O)N1c1cccc(Cl)c1 (centres undefined) in this test?
OUTPUT: 0

INPUT: Which outcome was entered for the molecule O=C(CN1CCSC1=NCc1ccccc1)c1ccc(Cl)c(Cl)c1 in this test?
OUTPUT: 1

INPUT: Which outcome was entered for the molecule O=C(NCc1nc2ccccc2[nH]1)C1=C[C@H](c2ccc(Br)cc2)C[C@H](OCc2ccc(CO)cc2)O1 in this test?
OUTPUT: 1

INPUT: Which outcome was entered for the molecule Clc1ccc(OCCSCc2nc3ccccc3[nH]2)cc1 in this test?
OUTPUT: 1

INPUT: Which outcome was entered for the molecule O=C(NCc1nc2ccccc2[nH]1)C1=C[C@@H](c2ccc(Br)cc2)C[C@@H](OCc2ccc(CO)cc2)O1 in this test?
OUTPUT: 1

INPUT: Which outcome was entered for the molecule O=C(NCc1nc2ccccc2[nH]1)C1=C[C@H](c2ccccc2)C[C@H](OCc2ccc(CO)cc2)O1 in this test?
OUTPUT: 1

INPUT: Which outcome was entered for the molecule O=C(NNC(=O)c1ccc(-n2cncn2)c([N+](=O)[O-])c1)c1ccc(Cl)cc1 in this test?
OUTPUT: 1
